- Test: yeast display, Sf9 membrane polyspecificity reagent, FACS + sequencing; frameworks hold sequencing errors

Chain sequence	polyreactivity (PSR sort gate)
QVQLLESGGGLVQAGGSLRLSCAASGRTFSGYAMGWYRQAPGKERELVAAISESGDGTYYADSVKGRFTISRDNAKNTVYLQMNSLKPEDTAVYYCAADGTLFSEYYWFFGYHDYWGQGTQVTVSS	high polyreactivity
QVQLVESGGGIVQAGGSLRLSCAASGRTFQLYAMGWYRQAPGKERELVAAITRGGSTKYADSVKGRFTISRDNAKNTVYLQMNSLKPEDTAVDYCAAKFSSYWSRFGYWGQGTQVTVSS	high polyreactivity
QVQLVESGGGLVQAGGSLRLSCASSGSTFYFNAMGWSRQAPGKERELVAGNSSGGSTYYADSVKGRFTISRDNAKNTVYLQMNSLKPEDTAVYYCAADSDTFYYTGYDYDYWGQGTQVTVSS	low polyreactivity
QVQLVESGGGLVQAGGSLRLSCAASGFIFAGYTMGWSRPAHGKERELVAAIRSSGGRTYYADSVKGRFTISRDNAKNTVYLQMYSMKPEDTAVDYCNAVVDRLIFWQFDYWGQGTQVTVSS	high polyreactivity
QVQLVESGGRLVQAGGSLRLSCAASGRIFRRYAMGWYRQAPGKERELVATINSGGTTNYADSVKGRFTISRDNAKNTVYLQMNSLKPEDTAVYYCNARSARYSGFDYWGQGTQVTVSS	high polyreactivity
QVQLVESGGGLVQAGGSLRLSCAASGRTFFYYAMGWYRQAPGKERELVAAITTDGGTTSYADSVKGRFTISRDNAKNTVSLQMNSLKPEETAVYYCAADASYQYYPYDYWGQGTQVTVSS	low polyreactivity
QVKLVESGGGLVQAGGSLRLSCPASGFIFYDYVMGWYRQAPGKERELVAAISSNGGSTYYADSVKGRFSISRDNAKYTVYLQMNSLKPEDTAVYYCAAEGKSYPWPWYFDYWGQGTQVTVSS	high polyreactivity
QVQLVESGGGLVQAGGSLRFSCAASGSISSQYGMGWYRQEPGKVRELVATIRDGGPTNYADSVKGRFTISRDNAKYTVYLQMNSLKPEDTAVYSCAALYWYYYTWPLYDYWGQGTQVTVSS	low polyreactivity
QVQLVESGGGLVQAGGSLRLSCAASGSTFDLNAMGWYRQAPGKERELVARITSSTGRTFYADSVKGRFTISRDNAKNTVYLQMNSLKPEDTAVYYCNTVGHGYSPPVNRSKMDYWGQGTQVTVSS	low polyreactivity
QVQLVESGGGLVQAGGSLRLSCAASGNTFVPYAMGWYRQAPGKERELVAAITFSAGRTYYADSVKGRFTISRDNAKNTVYLQMNSLKPEDTAVYYCNVYWYNNYRGYYYWGQGTQVTVSS	high polyreactivity
QVQLVESGGGLVQAGGSLRLSCAATGSIFVPNTMGWYRQAPGKERELVADINSDTGRTYYADSVKGRFTISRDNAKNTVYLQMNSLKPEDTAVYYCAAEWYSFWSSVEYDYWGQGTQVTVSS	low polyreactivity
QVQLVESGGGLVQAGGSLRLSCAASGITFYRYAMGWYRQAPGKERELVAAISRSGGSTYYADSVKGRFTISRDNAKNTVYLQMNSLKPEDTAGYYCAAYILGNRDGYEYWGQGTQVTVSS	high polyreactivity
QVQLVESGGGLVQAGGSLRLSCAASGFIFSVNAMGWYRQAPGKERELVAAISKRGGRTYYADSVKGRFTISRDNAKNTVYLQMNSLKPEDTAVYYCAADQPTLAYPGGYSAGMDYWGQGTQVTVSS	high polyreactivity
QVQLVESGGGLVQAGGSLRLSCAASGYTLGDYSMGWYRQAPGKERELVAVITRNGGRTYYSDSVKGRFTISRDKAKNTVYLQMNSLKPEDTAVYYCNRDTSIRHYNYWGQGTQVTVSS	high polyreactivity
QVQLVESGGGLVQAGGSLRLSCAASGTFKWYAMGWYRQAPGKERELVAVISSSSSTNYADSVKGRFTISRDNAKNTVYLQMNSLKPKIPAVYYCNAKWTTLFDYWGQGTQVTVSS	high polyreactivity
HVQLVESGGGLVQAGGSLRLSCAASGRILVHNAMGWYRQAPGKERELVAVITARGASTYYADSVKGRFTISRDNAKNSVYLQMNSLKPEDTAVYYCATDKRPKYYNQYDYWGQGTQVTVSS	low polyreactivity
QVQLVESGGGLVQAGGSLRLSCAGSGSTFWVNDMGWSRQAPGKERELVASITISTGATYYADSVKGRFTISRDTAKNTVYVQINSLKPEDTAVYYCNVEFENSGWKSFDYWGQGTQVTVSS	low polyreactivity
QVQLVESGGGLVQAGGSLRLSCAASGFTFNVNAMGWYRQAPGKERELVATITWSDGSTRYADSVKGRFTISRDNAKNTVYLQMNSLKPEDTAVYYCAAESSECTSGDYDYWGQCTQVTVSS	low polyreactivity
QVQLLESGGRLVQAGGSLRLSCAASGFTFGVNAMGWYRQAPGKERELVAAITSRGGSTYYADSVKGRFTISRDNAKNTVYLQMNSLKPEDTAVYYCAALGRGYFYGYRYDHWGQGTQVSVSS	high polyreactivity
QVQLVESGGGFVQAGGSLRLSCAASGSTFFTNAKGWYRQAPGKERELVAASRWRGGTYYADSVKGRFTISRDNAKKTVYLQMNSLKPEDTPVYDCATSVKTSFDYWRQGTQVTVSS	low polyreactivity
QVQLVESGGGLVQAGGRLRLSCAASGIIFQYNAMGWYRQAPGKEREFVAAISYGGTSTYYADSVKGRFTISRDNAKNTVYLQMNSLKPEDTAVYYCAADYQGYTPSDGRYYWGQGTQVTVSS	low polyreactivity
